Source listed as the kinase profiling compilation of Christmann-Franck et al. (2016).

target: RPS6KA4 KD2 (human); test: KINOMEscan competition binding; details: compound 10.0 µM
# note: boundary value 0.9% maps to label 0; kinase still bound, per cent of control below it maps to label 1

Threshold test, kinase still bound, per cent of control < 0.9%: COc1cc(N2CCN(C)CC2)ccc1Nc1ncc2c(n1)N(C)c1sccc1C(=O)N2C
label 0

Threshold test, kinase still bound, per cent of control < 0.9%: COc1cc(N2CCC(O)CC2)ccc1Nc1ncc2c(n1)N1CCc3cccc(c31)C(=O)N2C
label 0

Threshold test, kinase still bound, per cent of control < 0.9%: CN1C(=O)[C@H]2CCC[C@H]2N(C2CCCC2)c2nc(Nc3ccc(C(N)=O)cc3)ncc21
label 1

Threshold test, kinase still bound, per cent of control < 0.9%: COc1cc(N2CCC(N3CCN(C)CC3)CC2)ccc1Nc1ncc2c(n1)N1CCCC1CC(=O)N2C (stereo not given)
label 0

====

molecular target: TAOK1 (human); test: KINOMEscan competition binding; conditions: compound 10.0 µM
Would you kindly list kinase still bound, per cent of control for each of these compounds?

Entry CN1C(=O)c2ccccc2N(C)c2nc(Nc3ccc(N4CCC(O)CC4)cc3)ncc21 ; kinase still bound, per cent of control = 0.9%

Entry COc1cc(N2CCC(O)CC2)ccc1Nc1ncc2c(n1)N1CCc3cccc(c31)C(=O)N2C ; kinase still bound, per cent of control = 60%

Entry N=C1NC(=O)/C(=C/c2ccc(-c3cccc4cc[nH]c34)o2)S1 ; kinase still bound, per cent of control = 6%

Entry Cc1cn(-c2cc(NC(=O)c3cccc4cc(-c5ccc(/C=C6\SC(=N)NC6=O)o5)ccc34)cc(C(F)(F)F)c2)cn1 ; kinase still bound, per cent of control = 5.8%

Entry NS(=O)(=O)c1ccc(-c2ccc(/C=C3\SC(=O)NC3=O)o2)cc1 ; kinase still bound, per cent of control = 9.6%

====

Would you kindly list kinase still bound, per cent of control for each of these molecules?
tested on: EGFR (human), P00533 [P753S; 747-752 del]; assay: KINOMEscan competition binding; details: compound 10.0 µM
The response must be a number in % with no trailing unit.

# value of kinase still bound, per cent of control, EGFR (human), P00533 [P753S; 747-752 del], item COc1cc(N2CCN(C)CC2)ccc1Nc1ncc2c(n1)Nc1ccccc1NC2=O = 39

# value of kinase still bound, per cent of control, EGFR (human), P00533 [P753S; 747-752 del], item COc1cc(N2CCC(C)(O)CC2)ccc1Nc1ncc2c(n1)N(C1CCCC1)CCC(=O)N2C = 6.6

# value of kinase still bound, per cent of control, EGFR (human), P00533 [P753S; 747-752 del], item COc1cc(N2CCC(O)CC2)ccc1Nc1ncc2c(n1)N(c1ccccc1)CCC(=O)N2C = 15

# value of kinase still bound, per cent of control, EGFR (human), P00533 [P753S; 747-752 del], item COc1cc(N2CCN(C)CC2)ccc1Nc1ncc2c(n1)N(C)c1sccc1C(=O)N2C = 82

# value of kinase still bound, per cent of control, EGFR (human), P00533 [P753S; 747-752 del], item CN1C(=O)c2ccccc2N(C)c2nc(Nc3ccc(N4CCC(O)CC4)cc3)ncc21 = 100

# value of kinase still bound, per cent of control, EGFR (human), P00533 [P753S; 747-752 del], item COc1cc(N2CCC(O)CC2)ccc1Nc1ncc2c(n1)N1CCc3cccc(c31)C(=O)N2C = 91

# value of kinase still bound, per cent of control, EGFR (human), P00533 [P753S; 747-752 del], item COc1cc(N2CCC(N3CCN(C)CC3)CC2)ccc1Nc1ncc2c(n1)N(C1CCCC1)C(C)CC(=O)N2C (centres undefined) = 34

# value of kinase still bound, per cent of control, EGFR (human), P00533 [P753S; 747-752 del], item COc1cc(N2CCC(N3CCN(C)CC3)CC2)ccc1Nc1ncc2c(n1)N(C1CCCC1)C(C)CC(=O)N2 (centres undefined) = 32

# value of kinase still bound, per cent of control, EGFR (human), P00533 [P753S; 747-752 del], item O=C1NC(=O)C(=Cc2ccc(-c3ccc(S(=O)(=O)N4CCNCC4)cc3)o2)C(=O)N1 = 16

# value of kinase still bound, per cent of control, EGFR (human), P00533 [P753S; 747-752 del], item CN1C(=O)c2ccccc2N(C)c2nc(NS(=O)(=O)c3ccc(N)cc3)ncc21 = 100

# value of kinase still bound, per cent of control, EGFR (human), P00533 [P753S; 747-752 del], item COc1cc(N2CCN(C)CC2)ccc1Nc1ncc2c(n1)N(c1ccccc1)CCC(=O)N2 = 17

# value of kinase still bound, per cent of control, EGFR (human), P00533 [P753S; 747-752 del], item O=C1NC(=O)/C(=C/c2ccc(-c3ccc(F)cc3O)o2)S1 = 14

# value of kinase still bound, per cent of control, EGFR (human), P00533 [P753S; 747-752 del], item COc1cc(N2CCN(CCO)CC2)ccc1Nc1ncc2c(n1)N(C1CCCC1)CCC(=O)N2C = 24

# value of kinase still bound, per cent of control, EGFR (human), P00533 [P753S; 747-752 del], item Nc1cccc(-c2cc(/C=C3\SC(=O)NC3=O)c[nH]c2=O)c1 = 16

# value of kinase still bound, per cent of control, EGFR (human), P00533 [P753S; 747-752 del], item COc1cc(C(=O)NC2CCN(C)CC2)ccc1Nc1ncc2c(n1)N(CCc1ccccc1)CCC(=O)N2C = 31

# value of kinase still bound, per cent of control, EGFR (human), P00533 [P753S; 747-752 del], item COc1cc(N2CCC(O)CC2)ccc1Nc1ncc2c(n1)N(C1CCCC1)CCC(=O)N2C = 33

# value of kinase still bound, per cent of control, EGFR (human), P00533 [P753S; 747-752 del], item O=C1NC(=O)/C(=C/c2c[nH]c(=O)c(-c3ccc(N4CCNCC4)nc3)c2)S1 = 76

# value of kinase still bound, per cent of control, EGFR (human), P00533 [P753S; 747-752 del], item CN1CCN(c2ccc(C(=O)Nc3ncc4c(n3)N(C)c3ccccc3C(=O)N4C)cc2)CC1 = 100

# value of kinase still bound, per cent of control, EGFR (human), P00533 [P753S; 747-752 del], item COc1cc(N2CCN(C)CC2)ccc1Nc1ncc2c(n1)N(C)c1ccccc1N(C)C2=O = 100

====

molecular target: TTK (human) (UniProt P33981); assay: KINOMEscan competition binding; conditions: compound 10.0 µM
Sequence (P33981 whole entry, looked up): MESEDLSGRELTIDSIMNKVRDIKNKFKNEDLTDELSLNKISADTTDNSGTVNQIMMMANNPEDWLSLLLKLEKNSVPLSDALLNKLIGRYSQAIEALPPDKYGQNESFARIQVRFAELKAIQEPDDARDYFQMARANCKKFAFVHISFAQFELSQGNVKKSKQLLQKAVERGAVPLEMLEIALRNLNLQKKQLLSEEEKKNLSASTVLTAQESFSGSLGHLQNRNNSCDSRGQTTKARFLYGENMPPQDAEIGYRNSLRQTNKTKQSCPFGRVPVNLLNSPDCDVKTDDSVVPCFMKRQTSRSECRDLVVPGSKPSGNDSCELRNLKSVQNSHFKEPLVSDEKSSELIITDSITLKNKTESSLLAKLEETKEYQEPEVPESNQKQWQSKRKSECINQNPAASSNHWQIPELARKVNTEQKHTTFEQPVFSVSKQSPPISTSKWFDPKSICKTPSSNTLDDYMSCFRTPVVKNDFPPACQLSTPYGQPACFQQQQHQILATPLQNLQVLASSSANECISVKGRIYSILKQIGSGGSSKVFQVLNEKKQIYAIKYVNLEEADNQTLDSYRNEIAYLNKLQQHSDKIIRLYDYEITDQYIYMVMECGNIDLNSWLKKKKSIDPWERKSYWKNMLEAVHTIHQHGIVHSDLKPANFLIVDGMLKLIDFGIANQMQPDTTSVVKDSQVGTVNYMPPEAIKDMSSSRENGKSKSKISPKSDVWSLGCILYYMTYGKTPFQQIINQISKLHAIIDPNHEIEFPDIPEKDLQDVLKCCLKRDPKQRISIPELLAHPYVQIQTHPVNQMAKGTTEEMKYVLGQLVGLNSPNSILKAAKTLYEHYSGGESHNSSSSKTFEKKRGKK
metric: kinase still bound, per cent of control (%)
The response must be a number in % with no trailing unit.

Entry CS(=O)(=O)Nc1ccc(-c2ccc(/C=C3\SC(=N)NC3=O)o2)cc1 ; kinase still bound, per cent of control = 23

Entry COc1cc(C(=O)NC2CCN(C)CC2)ccc1Nc1ncc2c(n1)N(C1CCCC1)C(C)CC(=O)N2C (configuration not stated) ; kinase still bound, per cent of control = 4.6

Entry COc1cc(C(N)=O)ccc1Nc1ncc2c(n1)N(C1CCCC1)[C@@H]1CCC[C@@H]1C(=O)N2C ; kinase still bound, per cent of control = 13

Entry CS(=O)(=O)Nc1ccc(-c2cc(/C=C3\SC(=N)NC3=O)c[nH]c2=O)cc1 ; kinase still bound, per cent of control = 33

Entry COc1cc(N2CCN(C)CC2)ccc1Nc1ncc2c(n1)Nc1ccccc1NC2=O ; kinase still bound, per cent of control = 86

Entry CN1C(=O)c2ccccc2N(C)c2nc(Nc3ccc(N4CCC(O)CC4)cc3)ncc21 ; kinase still bound, per cent of control = 78

Entry COc1cc(N2CCC(N3CCN(C)CC3)CC2)ccc1Nc1ncc2c(n1)N(C1CCCC1)C(C)CC(=O)N2 (configuration not stated) ; kinase still bound, per cent of control = 12

====

tested on: EGFR (human), P00533 [752-759 del]; test: KINOMEscan competition binding; conditions: compound 10.0 µM
metric: kinase still bound, per cent of control (%)
The response must be a number in % with no trailing unit.

Entry COc1cc(N2CCN(C)CC2)ccc1Nc1ncc2c(n1)N(C)c1ccccc1N(C)C2=O ; kinase still bound, per cent of control = 100

Entry COc1cc(N2CCN(C)CC2)ccc1Nc1ncc2c(n1)N(c1ccccc1)CCC(=O)N2 ; kinase still bound, per cent of control = 14

Entry COc1cc(N2CCN(CCO)CC2)ccc1Nc1ncc2c(n1)N(C1CCCC1)CCC(=O)N2C ; kinase still bound, per cent of control = 23

Entry CN1CCN(c2ccc(C(=O)Nc3ncc4c(n3)N(C)c3ccccc3C(=O)N4C)cc2)CC1 ; kinase still bound, per cent of control = 100

Entry COc1cc(N2CCC(O)CC2)ccc1Nc1ncc2c(n1)N1CCc3cccc(c31)C(=O)N2C ; kinase still bound, per cent of control = 81

Entry COc1cc(N2CCN(C)CC2)ccc1Nc1ncc2c(n1)N(C)c1sccc1C(=O)N2C ; kinase still bound, per cent of control = 78

Entry CN1C(=O)c2ccccc2N(C)c2nc(Nc3ccc(N4CCC(O)CC4)cc3)ncc21 ; kinase still bound, per cent of control = 92

Entry COc1cc(N2CCC(O)CC2)ccc1Nc1ncc2c(n1)N(C1CCCC1)CCC(=O)N2C ; kinase still bound, per cent of control = 28

Entry COc1cc(C(=O)NC2CCN(C)CC2)ccc1Nc1ncc2c(n1)N(CCc1ccccc1)CCC(=O)N2C ; kinase still bound, per cent of control = 33

Entry O=C1NC(=O)/C(=C/c2c[nH]c(=O)c(-c3ccc(N4CCNCC4)nc3)c2)S1 ; kinase still bound, per cent of control = 95

Entry O=C1NC(=O)/C(=C/c2ccc(-c3ccc(F)cc3O)o2)S1 ; kinase still bound, per cent of control = 9.8

Entry COc1cc(N2CCC(C)(O)CC2)ccc1Nc1ncc2c(n1)N(C1CCCC1)CCC(=O)N2C ; kinase still bound, per cent of control = 10

Entry COc1cc(N2CCC(O)CC2)ccc1Nc1ncc2c(n1)N(c1ccccc1)CCC(=O)N2C ; kinase still bound, per cent of control = 21

Entry CN1C(=O)c2ccccc2N(C)c2nc(NS(=O)(=O)c3ccc(N)cc3)ncc21 ; kinase still bound, per cent of control = 100

Entry Nc1cccc(-c2cc(/C=C3\SC(=O)NC3=O)c[nH]c2=O)c1 ; kinase still bound, per cent of control = 14

Entry COc1cc(N2CCN(C)CC2)ccc1Nc1ncc2c(n1)Nc1ccccc1NC2=O ; kinase still bound, per cent of control = 69
